Origin of the recorded values: PubChem BioAssay (NCI)

The following molecules are shown together with reported GI50 values.
system: IGROV1 ovarian; assay: NCI tumour cell line growth inhibition, 48 h
VALUE KIND: GI50

- MOLECULE: "C1C[OH+]CC[OH+]CC[OH+]CC[OH+]CC[OH+]1.[Cl-].[V]"
  VALUE KIND: "GI50"
  VALUE MEASURED: "42.7 µM"
- MOLECULE: "CC/C=C\\C[C@H]1C/C=C2/C(=O)C=C[C@@H]2C/C=C\\CCCC(=O)O1"
  VALUE KIND: "GI50"
  VALUE MEASURED: "1.69 µM"
- MOLECULE: "O=S(=O)(Nc1cc(Sc2cccc3cccnc23)c(O)c2ccccc12)c1ccccc1"
  VALUE KIND: "GI50"
  VALUE MEASURED: "1.01 µM"
- MOLECULE: "C#Cc1c(I)n(C2OC(CO[Si](C)(C)C(C)(C)C)C3OC(C)(C)OC32)c(=O)[nH]c1=O (stereo not given)"
  VALUE KIND: "GI50"
  VALUE MEASURED: "4.46 µM"
- MOLECULE: "COc1cccc(C#Cc2ccccc2C#CCCCCO)c1"
  VALUE KIND: "GI50"
  VALUE MEASURED: "10.3 µM"
- MOLECULE: "C[C@H](O)C(=O)N1CCC(CCn2c(Sc3cc4c(cc3Br)OCO4)nc3c(N)ncnc32)CC1"
  VALUE KIND: "GI50"
  VALUE MEASURED: "1.32 µM"
- MOLECULE: "COc1ccc(C(=O)COc2ccc(/C=C3\\COc4ccc(OC)cc4C3=O)cc2)cc1"
  VALUE KIND: "GI50"
  VALUE MEASURED: "26 µM"
- MOLECULE: "CN(C)C(=O)[C@H](O)[C@H](Cc1ccccc1)NC(=O)c1cc2cc(Cl)ccc2[nH]1"
  VALUE KIND: "GI50"
  VALUE MEASURED: "22.4 µM"
- MOLECULE: "Nc1ccn(C2CCC(CO)O2)c(=O)n1 (stereo not given)"
  VALUE KIND: "GI50"
  VALUE MEASURED: "> 1000 µM"
- MOLECULE: "CC(=O)C(=CN1CCN(C(=O)c2ccco2)C1=S)C(C)=O"
  VALUE KIND: "GI50"
  VALUE MEASURED: "3.64 µM"

###

tested on: HOP-18 NSCLC; assay: NCI tumour cell line growth inhibition, 48 h
VALUE KIND: TGI

- COMPOUND: "C=CC/C=C/C/C=C/CCCCCCCc1cccc(O)c1C(=O)O"
  VALUE MEASURED: "65.3 µM"
- COMPOUND: "CCOC(=O)c1ccc(C)c(N=NN(C)C)c1"
  VALUE MEASURED: "> 100 µM"
- COMPOUND: "C1C[OH+]CC[OH+]CC[OH+]CC[OH+]CC[OH+]1.[Cl-].[V]"
  VALUE MEASURED: "> 100 µM"
- COMPOUND: "Cc1ccc(S(=O)(=O)C(C#N)c2nc3ccccc3nc2-n2ccnc2)cc1 (stereo not drawn)"
  VALUE MEASURED: "> 100 µM"
- COMPOUND: "O=C(O)[C@H](NS(=O)(=O)c1ccc([N+](=O)[O-])cc1)c1ccccc1"
  VALUE MEASURED: "> 100 µM"
- COMPOUND: "S=C1OC2CCCC[C@H]2O1 (stereo partly drawn)"
  VALUE MEASURED: "> 100 µM"
- COMPOUND: "O=C1CCC(O)=C1N=Nc1ccccc1"
  VALUE MEASURED: "> 100 µM"
- COMPOUND: "CC(C)(C)c1cc(C(O)(C(F)(F)F)C(F)(F)F)c2c(c1)C(C(F)(F)F)(C(F)(F)F)OC(C(C)(C)C)N2 (stereo not drawn)"
  VALUE MEASURED: "9.34 µM"
